Molecular target: Epidermal growth factor receptor (Homo sapiens)
Sequence (P00533 whole entry): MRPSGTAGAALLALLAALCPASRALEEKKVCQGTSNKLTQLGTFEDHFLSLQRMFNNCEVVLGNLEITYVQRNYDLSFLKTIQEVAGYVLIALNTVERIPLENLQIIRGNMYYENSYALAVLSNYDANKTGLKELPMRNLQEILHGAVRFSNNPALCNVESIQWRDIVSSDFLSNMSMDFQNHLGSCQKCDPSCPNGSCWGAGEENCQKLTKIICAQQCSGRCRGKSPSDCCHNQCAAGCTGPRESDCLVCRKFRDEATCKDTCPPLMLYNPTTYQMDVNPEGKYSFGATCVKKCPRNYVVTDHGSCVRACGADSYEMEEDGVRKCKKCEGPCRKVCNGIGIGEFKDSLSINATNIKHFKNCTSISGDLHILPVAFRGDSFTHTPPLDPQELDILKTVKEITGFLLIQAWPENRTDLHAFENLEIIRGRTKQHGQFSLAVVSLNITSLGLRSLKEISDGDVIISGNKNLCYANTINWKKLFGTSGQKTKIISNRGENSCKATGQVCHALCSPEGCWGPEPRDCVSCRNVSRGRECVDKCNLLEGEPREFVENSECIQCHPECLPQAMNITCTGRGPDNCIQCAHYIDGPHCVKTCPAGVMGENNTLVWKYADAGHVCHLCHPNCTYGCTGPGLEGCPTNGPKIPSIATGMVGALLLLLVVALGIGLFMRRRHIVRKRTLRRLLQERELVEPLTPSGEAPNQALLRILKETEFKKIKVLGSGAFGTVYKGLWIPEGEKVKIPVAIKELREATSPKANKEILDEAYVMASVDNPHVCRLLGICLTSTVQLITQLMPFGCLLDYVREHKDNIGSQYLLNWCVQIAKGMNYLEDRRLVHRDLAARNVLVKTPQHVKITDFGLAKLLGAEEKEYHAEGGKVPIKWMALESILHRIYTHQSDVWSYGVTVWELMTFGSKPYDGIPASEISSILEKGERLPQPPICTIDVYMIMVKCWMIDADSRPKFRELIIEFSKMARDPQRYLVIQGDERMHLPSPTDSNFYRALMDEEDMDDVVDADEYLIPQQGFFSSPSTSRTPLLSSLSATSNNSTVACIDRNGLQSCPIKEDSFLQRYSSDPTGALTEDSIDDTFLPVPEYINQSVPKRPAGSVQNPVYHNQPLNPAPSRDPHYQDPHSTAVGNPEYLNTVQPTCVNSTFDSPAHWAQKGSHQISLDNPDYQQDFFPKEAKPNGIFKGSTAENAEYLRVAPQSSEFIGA
Assay: Inhibition of wild type EGFR autophosphorylation in human A549 cells incubated for 1 hr followed by compound washout measured after 8 hrs by Western blot analysis
Type: cell-based
We begin with a simple list: items and their reported pIC50.
Value format note: pIC50 is -log10 of concentration (mol/L); just state the number.

For record "Brc1cccc(Nc2ncnc3ccc(NCCCN4CCCCC4)cc23)c1" the listed pIC50 is 7.85

Could you now look at the following compound, please?
For record "O=C(CCCN1CCCCC1)Nc1ccc2ncnc(Nc3cccc(Br)c3)c2c1" the listed pIC50 is 7.87

----------
Tested on: A549
Assay: Cellular uptake in human A549 cells incubated for 1 hr followed by compound washout measured after 8 hrs by HPLC-MS/MS analysis
Assay type: ADME, cell-based
Conditions: a549, 1 h
Label scheme for Drug uptake: lower than 4 µM is NOT MET, 4 µM and above is MET.

Some solved entries appear below for comparison.
(Q) Does "O=C(CCOc1ccccc1)Nc1ccc2ncnc(Nc3cccc(Br)c3)c2c1" have a reported Drug uptake of at least 4 µM?
(A) NOT MET

(Q) Does "C=CC(=O)Nc1ccc2ncnc(Nc3cccc(Br)c3)c2c1" have a reported Drug uptake of at least 4 µM?
(A) NOT MET

(Q) Does "Brc1cccc(Nc2ncnc3ccc(NCCCN4CCCCC4)cc23)c1" have a reported Drug uptake of at least 4 µM?
(A) MET

(Q) Does "O=C(COc1c(F)c(F)c(F)c(F)c1F)Nc1ccc2ncnc(Nc3cccc(Br)c3)c2c1" have a reported Drug uptake of at least 4 µM?
(A) NOT MET

(Q) Does COc1cc2ncnc(Nc3ccc(F)c(Cl)c3)c2cc1OCCCN1CCOCC1 [GEFITINIB] have a reported Drug uptake of at least 4 µM?
(A) NOT MET

***
(Q) Does "O=C(CCCN1CCCCC1)Nc1ccc2ncnc(Nc3cccc(Br)c3)c2c1" have a reported Drug uptake of at least 4 µM?
(A) MET

(Q) Does "Nc1ccc2ncnc(Nc3cccc(Br)c3)c2c1" have a reported Drug uptake of at least 4 µM?
(A) NOT MET

(Q) Does "CN(C)CCC(=O)Nc1ccc2ncnc(Nc3cccc(Br)c3)c2c1" have a reported Drug uptake of at least 4 µM?
(A) NOT MET

----------
Tested on: A549
Test: Cellular uptake in human A549 cells incubated for 1 hr followed by compound washout measured at 1 hr by HPLC-MS/MS analysis
Assay type: ADME, cell-based
Settings: a549, 1 h
We begin with a simple list: items and their reported log10 Drug uptake.
Remember, log10 of Drug uptake, in µM.

For record "CN(C)CCC(=O)Nc1ccc2ncnc(Nc3cccc(Br)c3)c2c1" the listed log10 Drug uptake is 1.41

For record "Brc1cccc(Nc2ncnc3ccc(NCCCN4CCCCC4)cc23)c1" the listed log10 Drug uptake is 2.51

For record "O=C(COc1c(F)c(F)c(F)c(F)c1F)Nc1ccc2ncnc(Nc3cccc(Br)c3)c2c1" the listed log10 Drug uptake is 2.38

For record "O=C(CCCN1CCCCC1)Nc1ccc2ncnc(Nc3cccc(Br)c3)c2c1" the listed log10 Drug uptake is 2.17

For record "O=C(CCOc1ccccc1)Nc1ccc2ncnc(Nc3cccc(Br)c3)c2c1" the listed log10 Drug uptake is 1.86

***
For record "Nc1ccc2ncnc(Nc3cccc(Br)c3)c2c1" the listed log10 Drug uptake is 1.11

For record "COc1cc2ncnc(Nc3ccc(F)c(Cl)c3)c2cc1OCCCN1CCOCC1" the listed log10 Drug uptake is 2.43

Data provenance is ChEMBL document CHEMBL2424521.
